These measurements were taken from patent US20250388680A1.

assayed system: T1, huIgG1 huCLL1 (human, UniProt Q5QGZ9 65-265, limits assumed)
T1 construct: not shown: human IgG1 part
T1 sequence: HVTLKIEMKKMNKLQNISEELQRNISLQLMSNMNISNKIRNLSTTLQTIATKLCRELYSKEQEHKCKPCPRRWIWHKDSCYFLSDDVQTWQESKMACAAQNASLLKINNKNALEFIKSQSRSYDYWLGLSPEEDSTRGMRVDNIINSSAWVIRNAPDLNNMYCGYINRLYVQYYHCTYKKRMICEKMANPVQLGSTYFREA
protocol: Octet BLI, mAb captured on FAB2G biosensor, antigen in solution
pKd: −log10 of the molar value.
measured property: pKd

binder	measured property	readout value
D2D88607-9226 (antibody, V domains shown, also called mAb_023) VH: QVQLQQWGAGLLKPSETLSLTCAVYGGSFSGYYWSWIRQPPGKGLEWIGEFNHSGGPNYNPSLKSRVTISTDTSNNQFSLKLSSVTAADTAVYYCARGTTGNYYYYMDVWGKGTTVTVSS VL: AIQMTQSPSSLSASVGDRVTITCRASQGIRNDLGWYQQKPGKAPKLLIYAASSLQSGVPSRFSGSGSGTDFTLTISSLQPEDFATYYCLQDYIYPPTFGPGTKLEIK	pKd	8.64
D2AD88607-7048 (antibody, V domains shown, also called mAb_042) VH: EVQLVESGGGLVQPGGSLRLSCAASGFTFSSYDMHWVRQATGKGLEWVSAIGTAGDKYYLASVKGRFTISRENAKNSLYLQMNSLRAGDTAVYYCVRDSLTGPTVTPYMDVWGKGTTVTVSS VL: EIVLTQSPDFQSVTPKEKVTITCRASQSIGSGLHWYQQKPDQSPKLLIIYASQSISGVPSRFSGSGSGTDFTLTINSLEAEDAAAYYCHQSSSLPYTFGQGTKLEIK	pKd	7.09
D2D88607-14083 (antibody, V domains shown, also called mAb_017) VH: EVQLLESGGDLVQPGGSLRLSCAASGFTFSSYAMNWVRQAPGKGLEWVSAISGSGVFTYYADSVKGRFTISRDNSENTLYLQMNSLRAEDTAVYYCAKEMQQLIQGDLFDIWGQGTMVTVSS VL: EIVLTQSPATLSLSPGERATLSCGASQSVSNNYLAWYQQKPGLAPRLLIYDASSRATGIPDRFSGSGSGTDFTLTISRLEPEDFAVYYCQQYGSSHTFGQGTKLEIK	pKd	8.50
D2AD88607-5141 (antibody, V domains shown, also called mAb_038) VH: QVQLVESGGGVVQPGRSLRLSCAASGFTFSSYGMHWVRQAPGKGLEWVAIISYDGSDKYYADSVKGRFTISRDNSKNTLYLQMNSLRAEDTAVYYCARNYNYYMDVWGKGTTVTVSS VL: EIVMTQSPATLSLSPGERATLSCRASQSVRSSYLSWYQQKPGQAPRLLIYGTSTRATGIPARFSGSGSGTDFTLTISSLQPEDFAVYYCQQDYNLPLTFGGGTKVEIK	pKd	7.70
